Listing of entries alongside the reported pIC50.
Target: DYRK1B (Homo sapiens)
Sequence (Q9Y463 whole entry): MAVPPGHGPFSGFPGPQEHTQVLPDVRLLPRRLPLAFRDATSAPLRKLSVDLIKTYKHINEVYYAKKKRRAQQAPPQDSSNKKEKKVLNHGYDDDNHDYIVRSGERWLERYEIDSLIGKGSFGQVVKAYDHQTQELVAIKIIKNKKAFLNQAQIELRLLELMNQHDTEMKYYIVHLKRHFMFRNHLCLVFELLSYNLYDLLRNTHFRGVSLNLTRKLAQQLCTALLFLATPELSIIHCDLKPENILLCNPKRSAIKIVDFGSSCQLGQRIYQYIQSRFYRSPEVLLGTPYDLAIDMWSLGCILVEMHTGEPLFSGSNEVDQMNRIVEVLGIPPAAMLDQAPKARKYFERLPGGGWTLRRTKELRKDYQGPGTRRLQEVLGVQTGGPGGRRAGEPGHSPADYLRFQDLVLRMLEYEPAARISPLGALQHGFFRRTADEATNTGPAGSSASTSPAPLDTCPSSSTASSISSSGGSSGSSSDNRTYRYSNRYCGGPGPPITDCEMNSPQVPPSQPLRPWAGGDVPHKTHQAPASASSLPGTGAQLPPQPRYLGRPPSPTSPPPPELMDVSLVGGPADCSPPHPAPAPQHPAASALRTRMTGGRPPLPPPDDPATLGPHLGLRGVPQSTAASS
Assay: Protein kinase assay ([γ-33P]-ATP, RS peptide substrate), DYRK1B
Format: biochemical
Settings: 15 µM ATP; read-out: IC50 DYRK 1B
Description: DYRK1A, 1B, 2, 3 (human, recombinant, expressed in E. coli as GST fusion proteins) and CLK1, 2, 3, and 4 (mouse, recombinant, expressed in E. coli as GST fusion proteins) were assayed as described for GSK-3 in Buffer A (supplemented extemporaneously with 0.15 mg BSA/mL + 1 mM DTT) with 1 µg of RS peptide ([…]) as a substrate.
pIC50: −log10 of the molar value.

cpd-smiles	assay-system	value-relation-sign	pIC50
C=CCc1[nH]c2c(Cl)cccc2c1C#N	DYRK1B (Homo sapiens)	=	5.89
N#Cc1c[nH]c2c(I)cccc12	DYRK1B (Homo sapiens)	=	5.74
N#Cc1c[nH]c2c(Br)cccc12	DYRK1B (Homo sapiens)	=	5.23
N#Cc1c(C2CCCC2)[nH]c2c(I)cccc12	DYRK1B (Homo sapiens)	=	6.22
N#Cc1c[nH]c2c(Cl)cccc12	DYRK1B (Homo sapiens)	<	5.00

---

target: DYRK1A (Homo sapiens, UniProt Q13627)
Lab note: class by IC50, see bottom end: < 200 nM; midrange: ≥ 200 nM and < 2000 nM; top end: ≥ 2000 nM

compound	assigned-label
Cn1c(-c2ccccc2)c(C#N)c2cccc(I)c21 [Compound 13f]	midrange
N#Cc1c(-c2ccccc2)[nH]c2ccccc12	midrange
Cn1cc(C#N)c2cccc(Br)c21 [Compound 13d]	midrange
Cn1c(-c2ccccc2)c(C#N)c2cccc(Br)c21 [Compound 13e]	top end
COc1ccc(-c2[nH]c3c(I)cccc3c2C#N)cc1	midrange
N#Cc1c(C2CCCC2)[nH]c2c(I)cccc12	bottom end
N#Cc1c(-c2cccnc2)[nH]c2c(I)cccc12	bottom end
N#Cc1c(C2CC2)[nH]c2c(I)cccc12	bottom end
COc1cccc(-c2[nH]c3c(I)cccc3c2C#N)c1	midrange
N#Cc1c(CCC2OCCCO2)[nH]c2c(Cl)cccc12	top end
CC(C)c1[nH]c2c(I)cccc2c1C#N	midrange

---

Listing of entries alongside the reported IC50.
target: GSK-3; assay: Protein kinase assay ([γ-33P]-ATP, GS-1 substrate), GSK-3; conditions: read-out: IC50 GSK3; 15 µM ATP

compound	IC50
N#Cc1c(CC(O)CO)[nH]c2c(Cl)cccc12 (centres unmarked)	2000 nM
Cn1cc(C#N)c2cccc(Br)c21 [Compound 13d]	> 10000 nM
CC(C)c1[nH]c2c(I)cccc2c1C#N	1300 nM
N#Cc1c(C2CCCC2)[nH]c2c(I)cccc12	> 10000 nM
N#Cc1c[nH]c2c(Cl)cccc12	> 10000 nM

---

target: DYRK2 (Homo sapiens); assay: Protein kinase assay ([γ-33P]-ATP, RS peptide substrate), DYRK2; assay type: biochemical; conditions: 10 µM compound; read-out: Inhibition at 10 µM DYRK2 (class symbol)
Sequence (Q92630 whole entry): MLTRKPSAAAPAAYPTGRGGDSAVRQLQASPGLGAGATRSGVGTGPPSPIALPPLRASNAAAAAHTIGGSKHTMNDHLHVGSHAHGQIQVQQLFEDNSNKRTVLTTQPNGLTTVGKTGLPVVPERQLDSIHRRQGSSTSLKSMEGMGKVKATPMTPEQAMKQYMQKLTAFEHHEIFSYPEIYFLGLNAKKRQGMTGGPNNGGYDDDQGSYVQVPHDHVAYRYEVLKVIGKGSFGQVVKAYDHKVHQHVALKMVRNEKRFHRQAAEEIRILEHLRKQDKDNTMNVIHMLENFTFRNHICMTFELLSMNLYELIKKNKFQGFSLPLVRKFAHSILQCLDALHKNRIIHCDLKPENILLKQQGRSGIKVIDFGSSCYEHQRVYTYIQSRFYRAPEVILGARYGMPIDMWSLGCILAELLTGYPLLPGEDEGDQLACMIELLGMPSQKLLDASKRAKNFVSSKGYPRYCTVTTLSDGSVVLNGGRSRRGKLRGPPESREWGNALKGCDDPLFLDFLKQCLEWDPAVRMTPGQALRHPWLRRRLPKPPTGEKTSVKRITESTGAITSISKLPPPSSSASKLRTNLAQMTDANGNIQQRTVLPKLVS

molecule	assay-system	inhibition at 10 µM
Cn1c(-c2ccccc2)c(C#N)c2cccc(I)c21 [Compound 13f]	DYRK2 (Homo sapiens)	< 20%
N#Cc1c(C2CCCC2)[nH]c2c(I)cccc12 [Compound 6s]	DYRK2 (Homo sapiens)	< 20%
N#Cc1c(-c2ccccc2)[nH]c2ccccc12 [Compound 6d, 2-Phenyl-1H-indole-3-carbonitrile]	DYRK2 (Homo sapiens)	< 20%
N#Cc1c(-c2cccnc2)[nH]c2c(I)cccc12 [Compound 6p]	DYRK2 (Homo sapiens)	< 20%
N#Cc1c(CC(O)CO)[nH]c2c(Cl)cccc12 (stereo not drawn) [Compound 14]	DYRK2 (Homo sapiens)	< 20%
Cn1c(-c2ccccc2)c(C#N)c2cccc(Br)c21 [Compound 13e]	DYRK2 (Homo sapiens)	< 20%
